System: CAMK4
conditions used: concentration: 1 μM, replicates: in singlicate; n = 1;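 further: KINOMEscan kinase panel screen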
experimental endpoint: %Inh (%)
// units = %; emit number, no label

Reported %Inh, compound `CN(C)CCNS(=O)(=O)c1ccc(-c2ccnc3[nH]ccc23)cc1` : ____
57

Form field: reported %Inh of `Cc1cccc(Nc2nc(NCCN)ncc2C(N)=O)c1`
0

What measured %Inh goes with `Nc1ncc(-c2ccc3nccc(-c4ccncc4)c3c2)cc1S(=O)(=O)N1CCCCC1` ?
0

* * *

Tested on: SGK
conditions used: concentration: 1 μM, replicates: in singlicate; n = 1
experimental endpoint: %Inh (%)
Value expressed in %; do not type the unit.

Consider the worked cases shown below.
{"columns": ["molecule", "units label", "reported"],
 "data": [
  ["Nc1ncc(-c2ccc3nccc(-c4ccncc4)c3c2)cc1S(=O)(=O)N1CCCCC1 [GSK1693850]", "%", 0],
  ["Cl.Cl.NCC(NC(=O)c1cc(-c2cccnc2)c(-c2ccnc3[nH]ccc23)s1)c1ccccc1 (centres unmarked) [GSK1323434]", "%", 27]
]}

Consider now this further molecule.
I am curious: what %Inh value has been reported for Cc1ccc(O)cc1Nc1ccnc2cc(-c3ccc(CN4CCCCC4)o3)ccc12 [GW557777] ?
1

The origin of these recorded values is paper PMC5540273.
